Tested on: SK-MEL-2 melanoma
assay.overview: NCI tumour cell line growth inhibition, 48 h; in the data active means GI50 below about 0.43 µM; inactive means the rest
Where a SMILES comes first, the peptide text is derived from it. [ ]: non-standard residue; d: D form. The star is where a group is joined. ξ: configuration not given here. 4Abz = Nc1ccc(C(=O)O)cc1; ξL = CC(C)CC(N)C(=O)O; NHOH = ON*
Labels: YES = active, NO = inactive

compound	category.label
CCCCCCCC(=O)SCC/C=C/[C@@H]1CC(=O)NCc2cccc(n2)CN(Cc2ccc(Cl)cc2)CC(=O)N[C@@H](C(C)C)C(=O)O1	NO
CC(C)CC(NC(=O)[C@@H]1CCCN1C(=O)CNC(=O)c1ccc(N)cc1)C(=O)N[C@H](C)C(=O)NO (some centres not stated) (H-[4Abz]GP[ξL][dA]-{NHOH})	NO
Cc1c(Br)cccc1NC(=O)c1sc2nc3c(cc2c1N)CN(Cc1ccccc1)CC3	YES
O=C(/C=C/c1ccco1)c1ccc(Nc2ccnc3cc(Cl)ccc23)cc1	NO
CC(=N\O)/C(C)=N/O.CC(=N\O)/C(C)=N/O.[Pd]	NO
COc1cc2c(cc1OC)[C@@H]1[C@H](C2=O)c2ccc([N+](=O)[O-])cc2C(=O)N1CCCBr	NO
Nc1nc(Cl)cc2c1ncn2C1OC(CO)C(O)C1O (configuration not stated)	NO

---

Recorded TGI, one value per entry.
Tested on: A549 NSCLC
assay.overview: NCI tumour cell line growth inhibition, 48 h
metric.name: TGI

compound	data.value
Cc1cccc2c1NC(c1c(C)[nH]c3ccccc13)C2 (stereo unspecified)	> 100 µM
O=c1c2ccccc2oc2nccnc12	> 100 µM
CC12CCC3=C(CSC4=C3CSc3ccccc34)C1=CCCC2=O (stereo unspecified)	> 100 µM
O=c1[nH]/c(=C/c2cccs2)c(=O)[nH]/c1=C/c1ccc(OCc2ccccc2)cn1	> 55.9 µM
Nc1c(Cl)ncnc1NCC1(CO)CCC1	> 100 µM
COc1ccccc1NC(=O)CC(=O)NNCC(=O)Nc1nc(-c2ccccc2)cs1	> 100 µM
NC(=O)c1ccc(N)nc1	> 400 µM
COC(=O)C1=C(SC)SC2(C(=O)OC)C3C=C(C)C4C(N13)C42C(=O)OC (stereo unspecified)	> 100 µM
Cc1cc(C)c2nc(Nc3nc(C)c(C)c(=O)[nH]3)nc(C)c2c1	5.92 µM
COc1ccc(-c2ccc(/C=N/n3cnn(CN4CCN(C)CC4)c3=S)o2)c([N+](=O)[O-])c1	> 100 µM
O=C1N2CCN=C2c2ccccc2C1(O)c1ccccc1 (stereo unspecified)	> 100 µM

---

Recorded TGI, one value per entry.
Test system: CCRF-CEM leukemia
assay.overview: NCI tumour cell line growth inhibition, 48 h
metric.name: TGI

compound	metric.name	data.value
CSc1nc(NC2CC2)c2c(n1)Sc1nc3ccccc3n1N=C2	TGI	> 100 µM
Nc1nc(Cl)cc2c1ncn2C1OC(CO)C(O)C1O (stereo not given)	TGI	> 100 µM
Brc1ccc2c(c1)[C@H]1CCc3c([nH]c4ccccc34)[C@H]1N2	TGI	21.6 µM
NC(N)=Nc1nc2cc(N)ccc2o1	TGI	> 100 µM
CC1CCC(O)/C=C/C(=O)OC(C)C(O)/C=C/C(=O)O1 (stereo not given)	TGI	> 79.9 µM
Nc1ccc(Cl)cc1.Nc1ccc(Cl)cc1.Nc1ccc(Cl)cc1.O=C([O-])C(=O)[O-].O=C([O-])C(=O)[O-].[H+].[Ru+5]	TGI	> 68 µM
Cc1cc(C)c2nc(Nc3nc(C)c(C)c(=O)[nH]3)nc(C)c2c1	TGI	8.61 µM
CCCCOP(=O)(OCCCC)C(NS(=O)(=O)c1ccccc1)(C(=O)OCC)C(F)(F)F (stereo not given)	TGI	72.5 µM
Cc1cc2nc(N)n[n+]([O-])c2cc1C	TGI	> 100 µM
c1cc(C2O[C@H]3CCCN3[C@@H]2c2ccncc2)ccn1 (stereo not given in full)	TGI	> 100 µM

---

System: HOP-18 NSCLC
assay.overview: NCI tumour cell line growth inhibition, 48 h

molecule	TGI
N.N.NCCCCN.O=C([O-])CCl.O=C([O-])CCl.O=C([O-])CCl.O=C([O-])CCl.[Pt+4].[Pt+4]	> 50 µM
COC1=C(NC(C)=O)C(=O)c2nc3n(c2C1=O)CCC3	39.1 µM
O=c1c2ccccc2oc2nccnc12	> 100 µM
Clc1cc(Cl)c2n[se]nc2c1	> 100 µM
COC(=O)c1ccc2n[se]nc2c1	> 100 µM
N#CC1(Cc2ccccc2Cl)c2ccccc2C=CN1C(=O)c1ccccc1 (stereo unspecified)	> 100 µM

---

System: MDA-MB-435
Where a SMILES comes first, the peptide text is derived from it. [ ]: non-standard residue; d: D form. The star is where a group is joined. ξ: configuration not given here. 4Abz = Nc1ccc(C(=O)O)cc1; ξL = CC(C)CC(N)C(=O)O; NHOH = ON*
Labels: active, inactive

molecule	category.label
COC(=O)C1=C(O)C(C(=O)OC)[C@@]2(O)[C@@H](C(=O)OC)C(c3ccc(OC(=O)C(Cc4ccccc4)NC(C)=O)cc3)C[C@@H]1[C@@H]2C(=O)OC (stereo partly specified)	inactive
Oc1ccc(Br)cc1CN1CCN(Cc2ccc(Cl)cc2)CC1	inactive
COc1ccc(-c2ccc(/C=N/n3cnn(CN4CCN(C)CC4)c3=S)o2)c([N+](=O)[O-])c1	inactive
CC(C)CC(NC(=O)[C@@H]1CCCN1C(=O)CNC(=O)c1ccc(N)cc1)C(=O)N[C@H](C)C(=O)NO (stereo partly specified) (H-[4Abz]GP[ξL][dA]-{NHOH})	inactive
CCCCC#Cc1c(I)n(C2OC(CO[Si](C)(C)C(C)(C)C)C3OC(C)(C)OC32)c(=O)[nH]c1=O (stereo unspecified)	inactive
COc1ccc(/C(C#N)=C/c2nc3c(N4CCOCC4)nc(Cl)nc3n2C)cc1OC	active
NS(=O)(=O)OC[C@H]1O[C@@H](n2cnc3c(N[C@H]4CCc5ccccc54)ncnc32)[C@H](O)[C@@H]1O	active
COc1cc(C2CC(c3ccc(C)cc3)=NN2C(C)=O)ccc1Oc1ccnc2cc(Cl)ccc12 (stereo unspecified)	inactive
Nc1ncnc2c1ncn2C1OC(CO)C(O)C1O (stereo unspecified)	inactive
Nc1nc(Cl)cc2c1ncn2C1OC(CO)C(O)C1O (stereo unspecified)	inactive
COc1ccc(C2CC(c3cccc(Nc4ccnc5cc(Cl)ccc45)c3)=NN2c2ccccc2)cc1 (stereo unspecified)	active

---

System: DU-145 prostate
assay.overview: NCI tumour cell line growth inhibition, 48 h; in the data active means GI50 below about 0.43 µM; inactive means the rest
Where a SMILES comes first, the peptide text is derived from it. [ ]: non-standard residue; d: D form. The star is where a group is joined. ξ: configuration not given here. 4Abz = Nc1ccc(C(=O)O)cc1; ξL = CC(C)CC(N)C(=O)O; NHOH = ON*
Labels: yes for active, no for inactive

molecule	target	category.label
Oc1ccc(Br)cc1CN1CCN(Cc2ccc(Cl)cc2)CC1	DU-145 prostate	no
CC([C@H]1CCC2C3CCC4C(=O)C(NC=O)=CC[C@]4(C)C3CC[C@@]21C)N(C)C (stereo not given in full)	DU-145 prostate	no
COc1ccc(C2CC(c3cccc(Nc4ccnc5cc(Cl)ccc45)c3)=NN2c2ccccc2)cc1 (stereo not given)	DU-145 prostate	no
O=C1c2cc(Br)ccc2-c2c1c1ccccc1c(=O)n2CCCCl	DU-145 prostate	no
COC(=O)C1=C(O)C(C(=O)OC)[C@@]2(O)[C@@H](C(=O)OC)C(c3ccccc3C(F)(F)F)C[C@@H]1[C@@H]2C(=O)OC (stereo not given in full)	DU-145 prostate	no
COC(=O)c1ccc2c(c1)CCN2C(=O)c1cc2c(cc1Br)OCO2	DU-145 prostate	no
O=C(CCCCCn1c2ccccc2c2c3c(c4c5ccccc5[nH]c4c21)C(=O)N(O)C3=O)N1CCOCC1	DU-145 prostate	no
N#CC1=C(N)Oc2c(sc3c(F)cccc23)C1c1ccc(Cl)cc1 (stereo not given)	DU-145 prostate	no
O=C1C=Cc2cc3ccccc3c3cccc1c23	DU-145 prostate	no
COc1ccc(CNCCN2C(=O)c3ccc4c5c(ccc(c35)C2=O)C(=O)N(CCNCc2ccc(OC)cc2)C4=O)cc1	DU-145 prostate	no
COc1cc(C2CC(c3ccc(C)cc3)=NN2C(C)=O)ccc1Oc1ccnc2cc(Cl)ccc12 (stereo not given)	DU-145 prostate	no
COc1ccc(/C(C#N)=C/c2nc3c(N4CCOCC4)nc(Cl)nc3n2C)cc1OC	DU-145 prostate	yes
COC(=O)c1ccc2c(c1)[n+](=O)c(C(C)=O)c(C(F)(F)F)n2[O-]	DU-145 prostate	no
CC(C)CC(NC(=O)[C@@H]1CCCN1C(=O)CNC(=O)c1ccc(N)cc1)C(=O)N[C@H](C)C(=O)NO (stereo not given in full) (H-[4Abz]GP[ξL][dA]-{NHOH})	DU-145 prostate	no
Cc1cc(C)c2nc(Nc3nc(C)c(C)c(=O)[nH]3)nc(C)c2c1	DU-145 prostate	no

These measurements were taken from PubChem BioAssay (NCI).
